Where a name gives a salt, the structure may show the parent alone.
As an illustration, consider measured pIC50 for compounds on IRAK4 (Homo sapiens).
Sequence (Q9NWZ3 whole entry): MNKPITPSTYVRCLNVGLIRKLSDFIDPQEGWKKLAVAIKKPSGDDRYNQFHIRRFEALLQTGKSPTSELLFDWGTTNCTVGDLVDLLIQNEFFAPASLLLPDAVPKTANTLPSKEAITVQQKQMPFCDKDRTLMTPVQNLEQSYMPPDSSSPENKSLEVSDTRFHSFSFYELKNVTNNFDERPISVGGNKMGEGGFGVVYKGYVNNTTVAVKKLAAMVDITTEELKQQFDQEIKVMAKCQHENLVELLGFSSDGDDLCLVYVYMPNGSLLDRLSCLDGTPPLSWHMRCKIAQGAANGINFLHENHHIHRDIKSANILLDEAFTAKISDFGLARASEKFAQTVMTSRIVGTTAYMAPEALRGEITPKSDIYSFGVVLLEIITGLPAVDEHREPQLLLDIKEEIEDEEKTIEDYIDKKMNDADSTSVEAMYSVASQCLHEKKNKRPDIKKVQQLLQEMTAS
Give bare numbers, as −log10 of the molar value.

Q) # query: pIC50 of entry `O=C1CC[C@@H](COc2nccc3cc4c(=O)[nH]cc(-c5cn[nH]c5)c4cc23)N1`
A) 7.55

Quick request: pIC50 for each listed item, please.
1. CC(C)Cc1c[nH]c(=O)c2cc3ccnc(OC[C@@H]4CCC(=O)N4)c3cc12
2. C=C(C)c1c[nH]c(=O)c2cc3ccnc(OC[C@@H]4CCC(=O)N4)c3cc12
3. CC[C@@H]1[C@H](F)C(=O)N[C@@H]1COc1nccc2cc3c(=O)[nH]cc(C)c3cc12
4. N#Cc1c[nH]c(=O)c2cc3ccnc(OC[C@@H]4CCC(=O)N4)c3cc12
5. Cc1c[nH]c(=O)c2cc3ccnc(OC[C@@H]4CCC(=O)N4)c3cc12 [I-25]
6. O=C1CC[C@@H](COc2nccc3cc4c(=O)[nH]cc(I)c4cc23)N1
7. Cc1c[nH]c(=O)c2cc3ccnc(OC[C@@H]4CCC(=O)N4)c3cc12 [I-2, formic acid salt]

A)
[5.66, 8.11, 8.26, 7.65, 7.16, 8.51, 8.17]
